These measurements were taken from PubChem BioAssay.

- testProtocol: viability of PTEN-null HCT116 cells – cell-based, HCT116 clonal line, CellTiter-Glo, pilot screen (AID 824);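 note: 0% = 20 µM Hyamine control and 100% = vehicle cell control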
- conditionNotes: HCT116 PTEN-deleted viability, 60 h, at 10 µM, stronger effect = lower value
Records with an inconclusive call do not appear.
valueKind: viability (%)

> print(dat)
                                    compound  reported
 1         CSc1ccccc1NC(=O)c1cnc2n(c1=O)CCS2      85.8
 2     COc1ccc(OC)c(C(=O)c2ccc(C(=O)O)cc2)c1       103
 3  COc1ccc(OC)c(C2C(C(=O)Nc3ccc(F)cc3)=C(C)Nc3nc(CCCO)nn32)c1 (stereo not given)      99.1
 4  CCc1nn(CC(=O)NCCCN2CCc3ccccc3C2)c(=O)c2cc3sccc3n12      79.9
 5  Cc1cc(NC(=O)CSc2nc3c(c(-c4cccnc4)c2C#N)CCC3)no1      98.5
 6  O=C(c1ccco1)N1CCN(C2=NS(=O)(=O)c3ccccc32)CC1      96.3
 7  COc1ccc(C(=O)Oc2c(CN3CCOCC3)cc(Cl)c3cccnc23)cc1OC      5.98
 8      c1ccc(-n2ncc3c(NC4CCCCCC4)ncnc32)cc1      65.7
 9             COc1ccc(C(=O)Nc2nncs2)c(OC)c1      93.9
10  CN(C)c1ccc(C(=O)Nc2nnc(-c3ccc(Cl)cc3)o2)cc1      25.2
11  COc1ccc(N2C(=O)C3CCCN3C2c2cccc(C)c2)cc1 (stereo not given)       100
12  CC(CCc1ccccc1)NC(=O)C1CCCN(c2nnc(-n3cccc3)s2)C1 (stereo not given)        96
13           Cc1cc(C)n2nc3nc4c(cc3c2n1)CCCC4      82.7
14  CC(C)Sc1nnc(Cn2c(=O)sc3ccccc32)n1-c1ccccc1      86.5
15  O=C(NC(=O)c1cccc(F)c1)OC[C@@H]1CCCN2CCCC[C@H]12      96.3
16  COc1ccc(N2CCN(C(=O)C(C)(C)Oc3ccc(Cl)cc3)CC2)cc1      71.7
17  Cc1ccccc1-n1c(Cn2c(=O)sc3ccccc32)nnc1SCC(N)=O       106
18  COC(=O)C1C2C=CC3(CN(c4cccc(Cl)c4)C(=O)C13)O2 (stereo not given)      99.5
19  CCN1CCCC1CNC(=O)c1cc2c(=O)n(C)c3ccccc3c2n1C (stereo not given)      66.2
20  COc1ccc(C2CC(c3ccc(Cl)cc3Cl)n3nc(N)nc3N2)cc1 (stereo not given)      91.3
21  Cc1noc(NS(=O)(=O)c2ccc(NC(=O)CSc3ncccn3)cc2)c1C      95.2
22     COc1ccc(N2CCN(C(=O)CSc3ccccc3)CC2)cc1      85.9
23  CCOC(=O)C(CC)n1nc(C)n2c(cc3sccc32)c1=O (stereo not given)      95.2
24        CN(C)CCNc1ncnc2c1cnn2-c1ccc(Cl)cc1      4.63
25  CCOC(=O)N1CCN(C(=O)CSc2nnc(COc3ccccc3)o2)CC1       100
26    O=C(NCCCN1CCOCC1)c1cc(-c2ccc(O)cc2)on1      93.7
27  COc1ccc(C(c2sc3nc(C)nn3c2O)N2CCCCC2)cc1 (stereo not given)      95.2
28          CCN(CC)CCn1c(=S)[nH]c2ccccc2c1=O      98.1
29  CC(=O)NC(CCS(C)(=O)=O)C(=O)Nc1cccc(C)c1 (stereo not given)       100
30       COc1ccc(Cl)cc1S(=O)(=O)n1ccnc1C(C)C      93.3
31  Cc1ccc2c(c1)C1CCCC3C1N2CC(=O)N3Cc1ccccc1 (stereo not given)      53.3
32       c1ccc(Cn2nnc3c(N4CCCCCC4)ncnc32)cc1      33.6
33       O=C(CN1C(=O)CSc2ncccc21)NCCN1CCOCC1      99.7
34  COc1ccc(-c2nc(CS(=O)CC(=O)NCC3CCCO3)c(C)o2)cc1 (stereo not given)       102
35  CCOc1cccc(N2C(=O)CC(NCc3ccc(S(N)(=O)=O)cc3)C2=O)c1 (stereo not given)      94.7
36  COc1cc(NC(=O)C2CCCN2S(=O)(=O)c2ccc3c(c2)CCC(=O)N3)cc(OC)c1 (stereo not given)       105
37  CCOC(=O)N1CCN(C(=O)COc2ccc(S(=O)(=O)NC(C)C)cc2)CC1        93
38  Cc1cc(C)cc(NC(=O)CSc2nnc(Cn3c(=O)sc4ccccc43)n2C)c1      94.9
39                   O=C(NCc1cccs1)c1ccccc1F      88.9
40  Cc1cc(NC(=O)c2cccc(S(=O)(=O)N3CC(c4ccccc4)CC3=O)c2)no1 (stereo not given)      90.5
41  CCOC(=O)CSC1=C(C#N)C(c2ccc(C)o2)CC(=O)N1 (stereo not given)      14.7
42  CCN(CC)CCNC(=O)c1cc2c(-c3ccc(Cl)cc3)nn(C)c2s1      1.95
43  CCn1c(=O)c2cc(C(=O)Nc3cc(C)on3)sc2c2ccccc21      71.5
44              CC1(C)CC(=O)C(C=NCCO)=C(O)C1       101
45  CC(C)(C)NC(=O)CSc1nc(O)cc(=O)n1-c1ccccc1F       101

---

- experimentalSystem: Receptor tyrosine-protein kinase erbB-2 (Homo sapiens)
- testProtocol: Her2 expression decrease, cell viability multiplex – SKBR3 breast tumor cells, AlphaScreen, ATP viability, primary screen (AID 461);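 for Her2 level: lower value means less Her2 protein in the cells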;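 for viability: percent of carrier control wells set as 100% viability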
- conditionNotes: 18-24 h, at 10 µM, stronger effect = lower value
Calls of active or inactive are those of the source.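 Rule for the calls: active = Her2 level under about 52% in both replicate screens, with viability over 70% of control (limit read from the data); inconclusive = Her2 under the limit in one screen only, or viability under 70%; inactive = Her2 level above the set limit.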
valueKind: Her2 level

> print(dat)
                                    compound   valuekind          reported
 1  COC(=O)Cn1c(CN2CCN(c3ccccc3F)CC2)nc2c1c(=O)n(C)c(=O)n2C  Her2 level    95% (inactive)
 2  CCOc1ccc(NC(=O)CN2C(=O)C3CCCN3C2=O)cc1 (stereo unspecified)  Her2 level   106% (inactive)
 3  O=C(CN1C(=O)c2ccccc2S1(=O)=O)NCc1ccccc1Cl  Her2 level   108% (inactive)
 4    CCOC(=O)Cn1c(CCC(=O)O)ccc1-c1ccc(F)cc1  Her2 level   101% (inactive)
 5       CC(=NCC1CCNCC1)C1=C(O)CC(C)(C)CC1=O  Her2 level  95.5% (inactive)
 6        Fc1ccc(-c2nnc3ccc(N4CCCC4)nn23)cc1  Her2 level  90.5% (inactive)
 7  CCOc1cc(C2CC(=O)N3CN(C4CCCCC4)CSC3=C2C#N)ccc1O (stereo unspecified)  Her2 level   108% (inactive)
 8  CC(CCc1ccco1)NC(=O)Cn1ncc2c1-c1ccccc1OC2 (stereo unspecified)  Her2 level    90% (inactive)
 9  COC(=O)C1=C(C)Nc2ncnn2C1c1ccc(C)o1 (stereo unspecified)  Her2 level   119% (inactive)
10  Cc1ccccc1Cn1nc(C)c(NC(=O)c2noc3c2CCc2ccccc2-3)c1C  Her2 level    61% (inactive)
11       CC(C)OC(=O)c1ccc(OC(=O)c2cccnc2)cc1  Her2 level   100% (inactive)

---

- testProtocol: Her2 expression decrease, cell viability multiplex – SKBR3 breast tumor cells, AlphaScreen, ATP viability, primary screen (AID 461);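 for viability: percent of carrier control wells set as 100% viability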
- conditionNotes: SKBR3 Her2 protein level, 18-24 h, measured here: SKBR3 viability, ATP luminescence, at 10 µM
Listed compounds paired with reported viability
valueKind: viability

> print(dat)
                                    compound  valuekind  reported
 1  Cc1cc(NC(=O)CS(=O)(=O)c2cn(Cc3cccc(F)c3)c3ccccc23)no1  viability      124%
 2  Cc1[nH]nc2c1C(C1CC=CCC1)C(C#N)=C(N)O2 (stereo unspecified)  viability      102%
 3  COC(=O)NCC(c1cccnc1)N1CCOCC1 (stereo unspecified)  viability       97%
 4  COc1ccc(OC)c(C(C)NC=O)c1 (stereo unspecified)  viability       89%
 5                 COCCCNC(=O)CSc1ccc(Cl)cc1  viability     94.5%
 6  CCn1c(NC(=O)c2cccc(Cn3cc(Cl)cn3)c2)nc2ccccc21  viability     93.5%
 7  Cc1ccc(S(=O)(=O)Cc2ccc(C(=O)N3CCN(Cc4ccccc4)CC3)o2)cc1  viability     86.5%
 8  COc1ccccc1-c1cc2nc(C)c(CCC(=O)NCc3ccco3)c(C)n2n1  viability       80%
 9  O=c1[nH]c2ccc(Br)cc2c(-c2ccccc2)c1N1CCOCC1  viability       91%
10           Cc1[nH]c2ccccc2c(=O)c1CN1CCCCC1  viability       99%
11  CC1=C(C(=O)Nc2ccc(F)cc2)C(c2cccc(C)c2)n2nc(CCCO)nc2N1 (stereo unspecified)  viability     87.5%
12  COc1ccc(-c2nnc3sc(C(C)N4C(=O)c5ccccc5C4=O)nn23)cc1 (stereo unspecified)  viability       84%
13  CCOC(=O)N1CCN(C(=O)c2ccc3nc4ccsc4c(=O)n3c2)CC1  viability     97.5%
14  CCOC(=O)C1CCCN(C(=O)c2ccc(CS(=O)(=O)c3ccc(Br)cc3)o2)C1 (stereo unspecified)  viability     85.5%
15        Fc1cccc(Nc2ncnc3c2cnn3-c2ccccc2)c1  viability     83.5%
16  O=C(c1cnc2n(c1=O)CCS2)N(C1CCCCC1)C1CCCCC1  viability       87%
17  CCn1cc(C(=O)NCc2ccccc2OC)c(=O)c2cc(S(=O)(=O)N(C)C)ccc21  viability     78.5%
18  O=C(O)CC(NC(=O)c1ccccc1NC(=O)c1ccccc1)C(=O)O (stereo unspecified)  viability     86.5%
19       Cc1sc2nc(SCC(=O)NCCO)n(C)c(=O)c2c1C  viability       91%
20  CCOC(=O)N1CCN(C(=O)c2c(-c3ccccc3)noc2C)CC1  viability       78%
21  CC1(C)CC(=O)C=C(Nc2ccc(OCC(F)(F)C(F)F)cc2)C1  viability       95%
22  COc1ccc(-n2c(Cc3cccn3C)nnc2SCC(=O)Nc2cccc(Cl)c2)cc1  viability      103%
23  COc1cc2c(cc1OC)C(C)N(C(=O)Cn1ncc3c1-c1ccccc1OC3)CC2 (stereo unspecified)  viability     90.5%
24  CCOc1ccc(NC(=O)CN(c2cc(C)cc(C)c2)S(=O)(=O)c2c(C)noc2C)cc1  viability       94%
25           CC(C)CNc1oc(-c2ccc(F)cc2)nc1C#N  viability      108%
26  COc1ccc(C(=O)Oc2c(CN3CCOCC3)cc(Cl)c3cccnc23)cc1OC  viability       93%
27  O=C1CCCCCC1C1(O)C(=O)Nc2ccccc21 (stereo unspecified)  viability      100%
28          CC1CCN(C(=O)Cn2cc3c(n2)CCCC3)CC1  viability       97%
29  CCOc1ccc(N(CC(=O)Nc2ccc(F)c(F)c2)S(=O)(=O)c2c(C)noc2C)cc1  viability     83.5%
30  O=C(c1ccc(CSCc2ccccc2F)o1)N1CCN(c2ccc(N3CCOCC3)nn2)CC1  viability     84.5%
31   COc1ccc(NC(=O)CSc2nnc(-c3ccccc3)n2N)cc1  viability     97.5%
32  CC(=O)NCC(=O)N(Cc1ccco1)C1(C(=O)NC2CCCCC2)CCCCC1  viability      140%
33  CC(CCc1ccccc1)NC(=O)C1CCCN(c2nnc(-n3cccc3)s2)C1 (stereo unspecified)  viability     89.5%
34  O=C(CC1Oc2ccc(Cl)cc2NC1=O)NC1CCCCCC1 (stereo unspecified)  viability     92.5%
35  COc1ccc(C2CC(c3ccc(OC)cc3)n3nc(N)nc3N2)cc1 (stereo unspecified)  viability     97.5%
36  CCOC(=O)C1=C(C)N(C)C(=O)NC1c1ccccc1OC (stereo unspecified)  viability       97%
37  CNC(=O)c1ccccc1NC(=O)c1c(O)c2c([nH]c1=O)CCCC2  viability      112%
38  CCn1cc(C(=O)NCC2CCCO2)c(=O)c2cc(S(=O)(=O)N(C)C)ccc21 (stereo unspecified)  viability     85.5%
39          c1ccc2c(c1)nc(NC1CCCCC1)c1nncn12  viability     98.5%
40              CC(C)c1nnc(NC(=O)Cc2cccs2)s1  viability      106%
41  CCCN1CC23C=CC(O2)C(C(=O)O)C3C1=O (stereo unspecified)  viability     81.5%
42  Cc1c(C(=O)NC2CC2)oc2ccc(S(=O)(=O)N3CCCCCC3)cc12  viability     81.5%
43           CCOC(=O)c1csc(NC(=O)C2CCCCC2)n1  viability       81%
44      COCCCN(C)C1CCN(C(=O)Nc2ccc(F)cc2)CC1  viability      106%
45        CCOCCCNC(=O)CN1CCN(Cc2ccccc2C)C1=O  viability     83.5%
46             CCCCn1c(CNC(=O)CCC)nc2ccccc21  viability      116%
